B1: HEEH_KT_rd6_0007 (parent)
chain: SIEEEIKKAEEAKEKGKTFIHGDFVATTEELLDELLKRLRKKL

variants of: B1; test: folding stability dG (cDNA display proteolysis); higher = more stable; details: PBS, room temperature
Assign a class from recorded folding stability dG; defined classes: low end: < 0.9 kcal/mol; middle: ≥ 0.9 kcal/mol and < 1 kcal/mol; high end: ≥ 1 kcal/mol

Hello team, could you let me know which band the following variant falls into: D33Y
high end

Hello team, could you let me know which band the following variant falls into: G16Q
middle

Please indicate the class for I2M based on its folding stability dG.
low end

Band assignment needed for L32K please.
low end

Kindly identify the class of L43N .
low end

Lab note: which band did L35T land in?
low end

Band assignment needed for K37S please.
high end

Please report the category associated with L43F , nothing else.
high end

For K7L , which folding stability dG bin applies?
high end

Class? Entry: K41M
high end

Which category fits this record: E30I
middle
